# assayed-target: Homeobox protein Hox-A13 (Mus musculus)
# assay-name: inhibitors of HoxA13-DNA binding, primary screen, biochemical, fluorescence polarization, labeled oligonucleotide (AID 1185)
# experimental-conditions: 15 min, higher = more signal, called active from +8 up or from −8 down
measured-property: z-score

compound | quantitative-readout
CO[C@H]1O[C@H](CO)[C@@H](OC(=O)CCc2ccccc2)[C@@H]2OC(=O)[C@@H](Cc3ccc4ccccc4c3)C/C=C/C[C@H](Cc3ccc4ccccc4c3)C(=O)O[C@@H]12 | -4.15
COCCCNC(=O)[C@]1(Cc2ccccc2N=[N+]=[N-])N=C(c2ccc(OCCCO)cc2)O[C@@H]1c1ccccc1 | -2.62
CC(C)(C)OC(=O)N1[C@@H](C=C(Br)Br)COC1(C)C | -0.337
[N-]=[N+]=NCc1ccccc1C[C@@]1(C(=O)NCCN2CCOCC2)N=C(c2ccc(OCCCO)cc2)O[C@@H]1c1ccccc1 | -4.43
Cc1ccc(S[C@]2(C(=O)NCc3ccccc3)CC(=O)N(Cc3ccccc3Cl)[C@@H]2c2ccc(CO)cc2)cc1 | -2.65
COCCOC(=O)N1C(=O)[C@@]2(c3cc(C#CCCO)ccc31)[C@H](c1ccc(O)cc1)N1[C@H](c3ccccc3)[C@H](c3ccccc3)OC(=O)[C@H]1[C@@H]2C(=O)NC[C@H](O)c1ccccc1 | -2.51
CCCCN1CC=CC23O[C@@H]4/C=C\CCC(C)OC(=O)C4[C@H]2C(=O)N(CCO)[C@@H]3C1=O (some centres undefined) | -5.58
C=C(C(=O)CC[C@@H](OC(=O)c1ccccc1-c1ccccc1C(=O)O)c1cccc(OCCO)c1)C(C)C | -4.86
[N-]=[N+]=NCc1ccccc1C[C@]1(C(=O)N2CCCCC2)COC(c2ccc(OCCCO)cc2)=N1 | -6.04
COC(=O)C1=CC(CCCO)=CC(c2ccc(CN3CCCC3)cc2)N(C)C=C1C(=O)OC (centres undefined) | -6.09
CC(C)C[C@@H]1NC(=O)[C@@H]2C[C@H](C(=O)NCCCCCNC(=O)CS)[C@H](c3ccc(O)cc3)N2C1=O | -0.472
COc1ccc([Si](C)(C)[C@@H]2[C@@H](CC(=O)N3CCC[C@H]3CO)O[C@]3(C(=O)N(Cc4cccc(N5C(=O)c6cccc7cccc5c67)c4)c4ccccc43)[C@H]2C)cc1 | -2.34
O=C1N(Cc2ccccc2)c2ccccc2C[C@@]12N=C(c1ccc(OCCCO)cc1)O[C@H]2c1ccccc1 | -5.07
O=C1O[C@H](c2ccccc2)[C@H](c2ccccc2)N2[C@H]1[C@@H](C(=O)O)[C@]1(C(=O)Nc3ccc(C#CC4(O)CCCCCC4)cc31)[C@H]2c1ccccc1OCCO | -5.71
